Where these numbers come from: ChEMBL document CHEMBL1770077

- assay system: Fe(3+)-Zn(2+) purple acid phosphatase (Phaseolus vulgaris)
- Sequence (P80366 whole entry): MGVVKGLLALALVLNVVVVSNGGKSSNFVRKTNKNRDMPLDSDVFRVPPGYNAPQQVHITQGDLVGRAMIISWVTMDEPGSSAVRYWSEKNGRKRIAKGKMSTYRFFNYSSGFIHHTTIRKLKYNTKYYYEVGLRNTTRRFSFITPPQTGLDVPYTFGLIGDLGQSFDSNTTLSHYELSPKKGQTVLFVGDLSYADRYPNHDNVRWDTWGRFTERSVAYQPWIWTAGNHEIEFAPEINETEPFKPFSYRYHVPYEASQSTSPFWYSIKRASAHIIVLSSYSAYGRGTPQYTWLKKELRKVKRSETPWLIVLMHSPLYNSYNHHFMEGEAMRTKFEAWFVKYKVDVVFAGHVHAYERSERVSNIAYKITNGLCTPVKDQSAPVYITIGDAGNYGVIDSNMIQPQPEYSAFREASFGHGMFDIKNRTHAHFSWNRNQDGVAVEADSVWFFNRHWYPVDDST
- protocol description: Uncompetitive inhibition of red kidney bean PAP using para-nitrophenol as substrate at pH 4.9 preincubated for 10 mins by UV-visible spectrophotometry
measurement kind: pKi
pKi is a log-scale quantity: -log10 of the concentration expressed in molar.

                                   molecule                              assay_system  test_result
0  CCCCCCCCCC(=O)NC(c1cccc2ccccc12)P(=O)(O)O (racemic)  Fe(3+)-Zn(2+) purple acid phosphatase (Phaseolus vulgaris)         3.99
1  CCCC(=O)NC(c1cccc2ccccc12)P(=O)(O)O (racemic)  Fe(3+)-Zn(2+) purple acid phosphatase (Phaseolus vulgaris)         3.18
2  CCCCCCC(=O)NC(c1cccc2ccccc12)P(=O)(O)O (racemic)  Fe(3+)-Zn(2+) purple acid phosphatase (Phaseolus vulgaris)         3.35

In: What value of pKi on Fe(3+)-Zn(2+) purple acid phosphatase (Phaseolus vulgaris) does CCCCCCCC(=O)NC(c1cccc2ccccc12)P(=O)(O)O (racemic) have?
Out: 3.35

###

- assay system: Fe(3+)-Zn(2+) purple acid phosphatase (Phaseolus vulgaris)
- protocol description: Competitive inhibition of red kidney bean PAP using para-nitrophenol as substrate at pH 4.9 preincubated for 10 mins by UV-visible spectrophotometry
measurement kind: Ki (µM)
Field: numeric (µM). Do not append units.

>>> print(df.to_string())
                                   compound  uom  test_result
0  CCCCCCCCCCCCCCCC(=O)NC(c1cccc2ccccc12)P(=O)(O)O (racemic)   µM           31
1  CCCCCCCC(=O)NC(c1cccc2ccccc12)P(=O)(O)O (racemic)   µM          195

In: Bench note: what Ki did CCCC(=O)NC(c1cccc2ccccc12)P(=O)(O)O (racemic) show?
Out: 238

In: Sample CCCCCCCCCCCC(=O)NC(c1cccc2ccccc12)P(=O)(O)O (racemic) — what was its Ki?
Out: 5

###

Recorded Ki for the following compounds
- protocol description: Uncompetitive inhibition of pig PAP using para-nitrophenol as substrate at pH 4.9 preincubated for 10 mins by UV-visible spectrophotometry
- Parameters: species or system Sus scrofa
Mention the unit after the number when you answer.

In [3]: df
Out[3]:
                                   compound  measurement_kind  test_result
0  CCCC(=O)NC(c1cccc2ccccc12)P(=O)(O)O (racemic)                Ki      1440 µM

Next, consider the following compound.
In: Returns the measured Ki for the input compound. Input: CCCCCCC(=O)NC(c1cccc2ccccc12)P(=O)(O)O (racemic)
Out: 349 µM
